Data provenance: PubChem BioAssay (NCI)

- Test system: COLO 205 colon
- MEASUREMENT_PROTOCOL: NCI-60 one-dose screen, 48 h
- CONDITION: 10 µM
About 83,000 compounds went through this panel and 20% of them were active in at least one assay; those are over-represented in the sample as a whole. Calls of active or inactive are those of the source. Rule for the calls: active = growth percent below 10; inactive = the rest.
Please state which outcome applies, choosing from 1.0 for active, 0.0 for inactive

Record excerpt, results attached:
[
  {
    "CHEM_SMILES": "FC(F)(F)c1ccc(-c2cnc(Cl)nc2NCc2cc(C(F)(F)F)cc(C(F)(F)F)c2)cc1",
    "CLASS_LABEL": 1.0
  },
  {
    "CHEM_SMILES": "Cc1ccc(-c2cc(-c3cccc(Nc4ccnc5cc(Cl)ccc45)c3)nc3nc(N)[nH]c(=O)c23)cc1",
    "CLASS_LABEL": 0.0
  },
  {
    "CHEM_SMILES": "COc1ccc(-c2csc(NC(=O)CO[N+](=O)[O-])n2)cc1",
    "CLASS_LABEL": 0.0
  },
  {
    "CHEM_SMILES": "[O-]c1c[n+](-c2ccc(Cl)cc2)no1",
    "CLASS_LABEL": 0.0
  }
]

API: the following record is the query input.
query: What is the recorded call for this compound in the test? COc1ccc(-c2oncc2-c2cc(OC)c3c(c2)OCO3)cc1
result: 0.0
